Each record here notes measured Activity.
assay: Antimitotic activity in rat ASK cells assessed as reversal of astrocyte formation at 0.8 ug/mL; type: functional

>  <Compound>
COc1cc([C@@H]2c3cc4c(cc3C[C@H]3COC(=O)[C@@H]32)OCO4)cc(OC)c1O [4'-DEMETHYLDEOXYPODOPHYLLOTOXIN]

>  <Quantity unit>
%

>  <Activity>
100

$$$$
>  <Compound>
COc1cc2cc(c1Cl)N(C)C(=O)C[C@H](OC(=O)[C@H](C)N(C)C(C)=O)[C@]1(C)O[C@H]1[C@H](C)[C@@H]1C[C@@](O)(NC(=O)O1)[C@H](OC)/C=C/C=C(\C)C2 [MAYTANSINE]

>  <Quantity unit>
%

>  <Activity>
100

$$$$
>  <Compound>
COc1cc([C@@H]2c3cc4c(cc3[C@H](O)[C@H]3COC(=O)[C@H]23)OCO4)cc(OC)c1OC [PODOFILOX]

>  <Quantity unit>
%

>  <Activity>
100

$$$$
>  <Compound>
COc1cc2c(c(OC)c1OC)-c1ccc(OC)c(=O)cc1[C@@H](NC(C)=O)CC2 [COLCHICINE]

>  <Quantity unit>
%

>  <Activity>
70

$$$$
>  <Compound>
COc1cc(-c2c3c(c(O)c4cc5c(cc24)OCO5)COC3=O)cc(OC)c1OC [DEHYDROPODOPHYLLOTOXIN]

>  <Quantity unit>
%

>  <Activity>
0

$$$$
>  <Compound>
COc1cc([C@@H]2c3cc4c(cc3C[C@H]3COC(=O)[C@@H]32)OCO4)cc(OC)c1OC [DESOXYPODOPHYLLOTOXIN]

>  <Quantity unit>
%

>  <Activity>
100

$$$$
>  <Compound>
COc1cc([C@@H]2c3cc4c(cc3C[C@@H]3COC(=O)[C@H]32)OCO4)cc(OC)c1OC [ISODEOXYPODOPHYLLOTOXIN]

>  <Quantity unit>
%

>  <Activity>
0

$$$$
>  <Compound>
CC[C@]1(O)C[C@H]2CN(CCc3c([nH]c4ccccc34)[C@@](C(=O)OC)(c3cc4c(cc3OC)N(C=O)[C@H]3[C@@](O)(C(=O)OC)[C@H](OC(C)=O)[C@]5(CC)C=CCN6CC[C@]43[C@@H]65)C2)C1 [VINCRISTINE]

>  <Quantity unit>
%

>  <Activity>
100

$$$$
>  <Compound>
COc1cc([C@@H]2c3cc4c(cc3C[C@H]3COC(=O)[C@H]32)OCO4)cc(OC)c1OC [DEOXYPICROPODOPHYLLIN]

>  <Quantity unit>
%

>  <Activity>
100

$$$$
>  <Compound>
COc1cc(-c2c3c(cc4cc5c(cc24)OCO5)COC3=O)cc(OC)c1OC [DEOXYDEHYDROPODOPHYLLOTOXIN]

>  <Quantity unit>
%

>  <Activity>
0

$$$$

---

assay: Antimitotic activity in rat ASK cells assessed as reversal of astrocyte formation at 0.032 ug/mL; assay type: functional

>  <Compound>
COc1cc([C@@H]2c3cc4c(cc3C[C@@H]3COC(=O)[C@H]32)OCO4)cc(OC)c1OC [ISODEOXYPODOPHYLLOTOXIN]

>  <Activity, %>
0

$$$$
>  <Compound>
COc1cc([C@@H]2c3cc4c(cc3[C@H](O)[C@H]3COC(=O)[C@H]23)OCO4)cc(OC)c1OC [PODOFILOX]

>  <Activity, %>
100

$$$$
>  <Compound>
CC[C@]1(O)C[C@@H]2CN(CCc3c([nH]c4ccccc34)[C@@](C(=O)OC)(c3cc4c(cc3OC)N(C)[C@H]3[C@@](O)(C(=O)OC)[C@H](OC(C)=O)[C@]5(CC)C=CCN6CC[C@]43[C@@H]65)C2)C1 [VINBLASTINE]

>  <Activity, %>
100

$$$$
>  <Compound>
COc1cc(C[C@H]2C(=O)OC[C@@H]2Cc2ccc3c(c2)OCO3)cc(OC)c1OC

>  <Activity, %>
0

$$$$

---

test system: Col2; experiment: Cytotoxicity against human Col2 cells; type: functional; settings: read-out: ED50 (the source's name)

>  <Compound>
COc1cc(C[C@H]2C(=O)OC[C@@H]2Cc2ccc3c(c2)OCO3)cc(OC)c1OC

>  <EC50>
0.08 mg/L

$$$$
>  <Compound>
COc1cc(-c2c3c(cc4c(OC)c5c(cc24)OCO5)COC3=O)cc(OC)c1OC

>  <EC50>
3.2 mg/L

$$$$
>  <Compound>
COc1cc([C@@H]2c3cc4c(cc3C[C@H]3COC(=O)[C@@H]32)OCO4)cc(OC)c1O [4'-DEMETHYLDEOXYPODOPHYLLOTOXIN]

>  <EC50>
0.03 mg/L

$$$$
>  <Compound>
COc1cc([C@@H]2c3cc4c(cc3C[C@H]3COC(=O)[C@H]32)OCO4)cc(OC)c1OC [DEOXYPICROPODOPHYLLIN]

>  <EC50>
0.3 mg/L

$$$$
